Tested on: OVCAR-3-derived ovarian cancer stem-like cells (spheroids)
method_description: cell growth relative to untreated control; higher = more growth (less inhibition)
condition: 2.29 µM; 96 h
For each of the compounds below, state its cell growth.
Report the figure in % without appending any unit label.

Data request: Please look up its cell growth: COc1ccc2c(c1)CCc1c-2n[nH]c1-c1[nH]nc2c1CCc1cc(OC)ccc1-2
Data returned: 87.5

Data request: Please look up its cell growth: CC(C)=CCC(OC(=O)C=C(C)C)C1=CC(=O)c2c(O)ccc(O)c2C1=O (stereo unspecified)
Data returned: 35

Data request: Please look up its cell growth: CC(C)=CC1C(C(=O)O)C1(C)C (stereo unspecified)
Data returned: 103

Data request: Please look up its cell growth: O=S1(=O)OCCOS(=O)(=O)C1Cc1ccccc1
Data returned: 93.4

Data request: Please look up its cell growth: COc1ccc(C=CC(=O)Oc2cc(O)cc(O)c2)cc1
Data returned: 99.6

Data request: Please look up its cell growth: COc1ccc(-c2cc(=O)c3c(O)cc(O)cc3o2)cc1OC
Data returned: 4.9
